# target-under-test: MDR1 (P-gp) (Homo sapiens (Human), UniProt P08183)
# Sequence (P08183 whole entry): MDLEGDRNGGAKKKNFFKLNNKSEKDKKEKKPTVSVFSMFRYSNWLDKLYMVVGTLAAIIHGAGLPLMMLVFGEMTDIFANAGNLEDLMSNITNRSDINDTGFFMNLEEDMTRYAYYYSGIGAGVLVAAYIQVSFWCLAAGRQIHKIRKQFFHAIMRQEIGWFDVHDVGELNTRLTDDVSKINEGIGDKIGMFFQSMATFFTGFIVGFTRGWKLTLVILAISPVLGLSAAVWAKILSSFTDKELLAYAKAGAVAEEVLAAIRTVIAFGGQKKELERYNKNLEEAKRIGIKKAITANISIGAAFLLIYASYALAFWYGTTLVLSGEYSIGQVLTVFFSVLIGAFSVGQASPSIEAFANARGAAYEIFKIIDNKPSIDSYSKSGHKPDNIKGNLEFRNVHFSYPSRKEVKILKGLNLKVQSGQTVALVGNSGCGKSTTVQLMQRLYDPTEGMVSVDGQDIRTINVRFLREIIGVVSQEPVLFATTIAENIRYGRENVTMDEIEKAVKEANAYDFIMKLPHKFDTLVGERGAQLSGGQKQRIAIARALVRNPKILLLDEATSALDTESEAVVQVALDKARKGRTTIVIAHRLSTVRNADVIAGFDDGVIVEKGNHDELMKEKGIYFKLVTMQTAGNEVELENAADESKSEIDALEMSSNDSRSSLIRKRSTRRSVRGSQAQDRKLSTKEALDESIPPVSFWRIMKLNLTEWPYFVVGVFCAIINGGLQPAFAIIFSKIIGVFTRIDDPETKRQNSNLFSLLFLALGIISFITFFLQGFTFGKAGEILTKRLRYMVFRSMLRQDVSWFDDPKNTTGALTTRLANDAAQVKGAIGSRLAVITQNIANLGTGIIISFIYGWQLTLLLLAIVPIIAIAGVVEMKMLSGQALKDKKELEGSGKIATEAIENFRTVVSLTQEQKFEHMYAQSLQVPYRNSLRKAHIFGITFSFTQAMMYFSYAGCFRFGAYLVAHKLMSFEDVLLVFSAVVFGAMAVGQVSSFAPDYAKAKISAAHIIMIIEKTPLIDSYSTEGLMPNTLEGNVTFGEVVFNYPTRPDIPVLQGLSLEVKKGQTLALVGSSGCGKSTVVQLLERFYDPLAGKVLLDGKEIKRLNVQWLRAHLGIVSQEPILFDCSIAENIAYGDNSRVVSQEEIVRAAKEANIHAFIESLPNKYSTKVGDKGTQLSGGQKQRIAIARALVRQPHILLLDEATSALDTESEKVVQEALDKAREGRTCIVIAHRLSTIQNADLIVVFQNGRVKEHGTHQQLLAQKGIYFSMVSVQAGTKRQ
# assay-overview: in vitro
# test-context: pig, LLC-PK1
Would you kindly list efflux ratio at 2 h, 1 µM for each of these compounds?
Numbers only.

Illustrative cases are given below, each with its answer.
[
  {
    "compound": "C=CC(=O)N1[C@@H]2CC[C@H]1[C@H](c1ccc3ncnc(Nc4ccc(Oc5ccn6ncnc6c5)c(C)c4F)c3n1)C2 (racemic) [Example 213]",
    "reported-value": 1.5
  },
  {
    "compound": "CC#CC(=O)N1CC[C@@H]2C[C@H]1CN2c1ccc2ncnc(Nc3ccc(Oc4ccn5ncnc5c4)c(C)c3F)c2n1 [Example 176]",
    "reported-value": 1
  },
  {
    "compound": "C=CC(=O)N1CCN(c2ccc3ncnc(Nc4ccc(Oc5ccc6c(c5)ncn6C)c(Cl)c4F)c3n2)CC1(C)C [Example 262]",
    "reported-value": 1.7
  },
  {
    "compound": "C=CC(=O)N1CC[C@@H]2C[C@H](c3ccc4ncnc(Nc5cc(C)c(Oc6ccn7ncnc7c6)cc5F)c4n3)C[C@@H]21 (single isomer, unassigned) [Example 225]",
    "reported-value": 1.2
  },
  {
    "compound": "C=CC(=O)N1C2CC1CN(c1ccc3ncnc(Nc4cc(C)c(Oc5ccn6ncnc6c5)cc4F)c3n1)C2 [Example 43]",
    "reported-value": 3
  },
  {
    "compound": "C=CC(=O)N1CCC(Sc2ccc3ncnc(Nc4cc(C)c(Oc5ccc6c(c5)ncn6C)cc4F)c3n2)CC1 [Example 64]",
    "reported-value": 2.4
  },
  {
    "compound": "C=CC(=O)N1[C@@H]2CC[C@H]1C[C@@H](c1ccc3ncnc(Nc4ccc(Oc5ccn6ncnc6c5)c(Cl)c4F)c3n1)C2 [Example 214]",
    "reported-value": 1.4
  }
]

With those in mind, consider the next compound.
// efflux ratio at 2 h, 1 µM (MDR1 (P-gp) (Homo sapiens (Human), UniProt P08183)) for C=CC(=O)N1CCN(c2ccc3ncnc(Nc4cc(C)c(Oc5ccc6c(c5)ncn6C)cc4F)c3n2)CC1(C)C [Example 82] = 2

###

# target-under-test: EGFR wild type (EGFR WT) (Homo sapiens (Human))
# Sequence (P00533 25-1210): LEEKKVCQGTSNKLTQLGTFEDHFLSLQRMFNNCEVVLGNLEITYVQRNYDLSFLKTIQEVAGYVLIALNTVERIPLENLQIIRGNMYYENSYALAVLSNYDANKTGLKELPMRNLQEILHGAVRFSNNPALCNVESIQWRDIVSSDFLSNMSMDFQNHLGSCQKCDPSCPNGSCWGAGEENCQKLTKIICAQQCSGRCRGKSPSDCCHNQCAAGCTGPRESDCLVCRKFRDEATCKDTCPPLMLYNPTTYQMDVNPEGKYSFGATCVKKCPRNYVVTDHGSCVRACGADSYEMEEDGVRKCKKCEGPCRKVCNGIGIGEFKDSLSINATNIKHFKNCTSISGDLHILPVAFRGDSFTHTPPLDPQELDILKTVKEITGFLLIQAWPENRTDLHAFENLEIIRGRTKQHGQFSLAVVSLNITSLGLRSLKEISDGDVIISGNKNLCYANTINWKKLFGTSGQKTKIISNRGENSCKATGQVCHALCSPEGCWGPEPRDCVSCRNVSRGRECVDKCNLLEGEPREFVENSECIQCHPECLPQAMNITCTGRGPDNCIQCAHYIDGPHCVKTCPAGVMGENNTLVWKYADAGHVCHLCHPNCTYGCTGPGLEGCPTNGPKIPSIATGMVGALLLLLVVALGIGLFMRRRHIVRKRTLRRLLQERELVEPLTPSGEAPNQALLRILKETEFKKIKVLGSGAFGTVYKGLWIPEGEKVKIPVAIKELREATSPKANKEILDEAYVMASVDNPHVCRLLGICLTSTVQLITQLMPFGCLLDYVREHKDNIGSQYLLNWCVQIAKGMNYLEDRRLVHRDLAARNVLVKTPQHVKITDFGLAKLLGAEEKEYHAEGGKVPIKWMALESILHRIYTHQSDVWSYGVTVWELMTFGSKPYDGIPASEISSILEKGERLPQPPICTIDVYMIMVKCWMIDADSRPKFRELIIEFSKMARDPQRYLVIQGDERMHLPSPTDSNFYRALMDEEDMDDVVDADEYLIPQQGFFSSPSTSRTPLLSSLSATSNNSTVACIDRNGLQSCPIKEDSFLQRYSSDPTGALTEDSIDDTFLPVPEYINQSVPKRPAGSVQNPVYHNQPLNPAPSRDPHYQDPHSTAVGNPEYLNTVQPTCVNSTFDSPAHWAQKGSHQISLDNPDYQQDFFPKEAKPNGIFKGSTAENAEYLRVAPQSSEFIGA
# assay-overview: Cellular Phosphorylation Assay, Assay 5 (EGF-stimulated EGFR phosphorylation, NIH 3T3 cells)
# Assay type: cell-based
# test-context: cellular EGFR WT phosphorylation, EGF-stimulated
Can you tell me log10 of IC50 for the items I'm about to list?
# log10 transformed; quantity=IC50; unit=nM

[
  {
    "compound": "C=CC(=O)N1C[C@H]2CC[C@H](c3ccc4ncnc(Nc5ccc(Oc6ccn7ncnc7c6)c(C)c5F)c4n3)[C@H]2C1",
    "reported-value": 3.16
  },
  {
    "compound": "C=CC(=O)N1CCN(c2ccc3ncnc(Nc4ccc(Oc5ccn6ncnc6c5)c(C)c4F)c3n2)C[C@H]1C(C)(C)C",
    "reported-value": 3.41
  },
  {
    "compound": "C=CC(=O)N1CCN(c2ccc3ncnc(Nc4ccc(Oc5ccn6ncnc6c5)c(Cl)c4F)c3n2)C[C@H]1COC",
    "reported-value": 1.67
  },
  {
    "compound": "C=CC(=O)N1CCN(c2ccc3ncnc(Nc4ccc(Oc5cnc6c(c5)ncn6C)c(C)c4F)c3n2)C[C@@H]1C(F)F (racemic)",
    "reported-value": 2.81
  },
  {
    "compound": "C=CC(=O)N1CCN(c2ccc3ncnc(Nc4ccc(Oc5ccn6ncnc6c5)c(Cl)c4F)c3n2)CC1C(F)F (stereo not shown)",
    "reported-value": 1.55
  }
]

Proceed to the following item.
# log10 of IC50 (compound: `CC#CC(=O)N1C[C@@H]2C[C@H]1CN2c1ccc2ncnc(Nc3ccc(Oc4ccn5ncnc5c4)c(Cl)c3F)c2n1` ) is 3.16
